# Tested on: SYK;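 also: KINOMEscan kinase panel screen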
# conditionLabel: concentration: 1 μM, replicates: in singlicate; n = 1
Range-based classes on measured %Inh: small value: < 2%; mid value: ≥ 2% and < 40%; large value: ≥ 40%

// query Band for the recorded %Inh of `COc1cc2ncn(-c3cc(OCc4sccc4Cl)c(C(N)=O)s3)c2cc1OC` ?
// result mid value

// query Band for the recorded %Inh of `NS(=O)(=O)c1cccc(-c2ccc3nccc(-c4cccc(S(N)(=O)=O)c4)c3c2)c1` ?
// result small value

// query Band for the recorded %Inh of `N#Cc1ccc(-c2cc(-c3c[nH]nc3-c3ccccn3)ccn2)cc1` ?
// result mid value

// query Band for the recorded %Inh of `[2H]C([2H])(c1cccc(C(F)(F)F)c1C)n1ccn2c(=O)nc(N3CCOCC3)cc12` ?
// result large value

***
// query Band for the recorded %Inh of `N#Cc1c(N2CCOCC2)sc(-c2ccn[nH]2)c1-c1ccc(Cl)cc1` ?
// result mid value

// query Band for the recorded %Inh of `Cl.Oc1cccc(Nc2ccnc3cc(-c4ccncc4)ccc23)c1` ?
// result large value

// query Band for the recorded %Inh of `NS(=O)(=O)c1cccc(-c2ccc3ncc(N4CCOCC4)nc3c2)c1` ?
// result small value
